This collection of values is drawn from paper PMC6920806.

biological target: lectin PA-IL (Pseudomonas aeruginosa, UniProt Q05097); construct: made in house; host or cells: Escherichia coli BL21(DE3); experiment: SPR inhibition of PA-IL binding to immobilized D-galactosides; conditions: SPR; standard D-galactose
Sequence (Q05097 2-122): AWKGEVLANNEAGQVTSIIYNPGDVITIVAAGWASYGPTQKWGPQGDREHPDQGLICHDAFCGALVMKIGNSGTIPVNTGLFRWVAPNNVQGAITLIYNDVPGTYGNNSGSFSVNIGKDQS
RECORDED_METRIC: β (Potency/Valency)
Give bare numbers.

Use these answered entries as a reference point.
1. OC[C@H]1O[C@@H](OCc2cn(CCOCCOCCOCCn3cc(COCC(COCc4cn(CCOCCOCCOCCn5cc(CO[C@@H]6O[C@H](CO)[C@H](O)[C@H](O)[C@H]6O)nn5)nn4)(COCc4cn(CCOCCOCCOCCn5cc(CO[C@@H]6O[C@H](CO)[C@H](O)[C@H](O)[C@H]6O)nn5)nn4)COCc4cn(CCOCCOCCOCCn5cc(CO[C@@H]6O[C@H](CO)[C@H](O)[C@H](O)[C@H]6O)nn5)nn4)nn3)nn2)[C@H](O)[C@@H](O)[C@H]1O : 6.4
2. COC(=O)c1cc(OCc2cn(CCn3cc(CO[C@@H]4O[C@H](CO)[C@H](O)[C@H](O)[C@H]4O)nn3)nn2)c(OCc2cn(CCn3cc(CO[C@@H]4O[C@H](CO)[C@H](O)[C@H](O)[C@H]4O)nn3)nn2)c(OCc2cn(CCn3cc(CO[C@@H]4O[C@H](CO)[C@H](O)[C@H](O)[C@H]4O)nn3)nn2)c1 : 8.4
3. COC(=O)c1cc(OCc2cn(CCOCCOCCOCCn3cc(CO[C@@H]4O[C@H](CO)[C@H](O)[C@H](O)[C@H]4O)nn3)nn2)c(OCc2cn(CCOCCOCCOCCn3cc(CO[C@@H]4O[C@H](CO)[C@H](O)[C@H](O)[C@H]4O)nn3)nn2)c(OCc2cn(CCOCCOCCOCCn3cc(CO[C@@H]4O[C@H](CO)[C@H](O)[C@H](O)[C@H]4O)nn3)nn2)c1 : 9.2

Given the entry O=C[C@H](O)[C@@H](O)[C@@H](O)[C@H](O)CO [D-galactose, reference compound] , report its measured β (Potency/Valency).
1

* * *

biological target: lectin PA-IL (Pseudomonas aeruginosa, UniProt Q05097); construct: made in house; host or cells: Escherichia coli BL21(DE3); assay: Isothermal titration microcalorimetry (ITC); assay type: binding; conditions: ITC, 25 °C, single site-binding model
RECORDED_METRIC: n (stoichiometry)
One number for each entry.

1) OC[C@H]1O[C@@H](OCc2cn(CCOCCOCCOCCn3cc(COCC(COCc4cn(CCOCCOCCOCCn5cc(CO[C@@H]6O[C@H](CO)[C@H](O)[C@H](O)[C@H]6O)nn5)nn4)(COCc4cn(CCOCCOCCOCCn5cc(CO[C@@H]6O[C@H](CO)[C@H](O)[C@H](O)[C@H]6O)nn5)nn4)COCc4cn(CCOCCOCCOCCn5cc(CO[C@@H]6O[C@H](CO)[C@H](O)[C@H](O)[C@H]6O)nn5)nn4)nn3)nn2)[C@H](O)[C@@H](O)[C@H]1O : 0.32
2) COC(=O)c1cc(OCc2cn(CCn3cc(CO[C@@H]4O[C@H](CO)[C@H](O)[C@H](O)[C@H]4O)nn3)nn2)c(OCc2cn(CCn3cc(CO[C@@H]4O[C@H](CO)[C@H](O)[C@H](O)[C@H]4O)nn3)nn2)c(OCc2cn(CCn3cc(CO[C@@H]4O[C@H](CO)[C@H](O)[C@H](O)[C@H]4O)nn3)nn2)c1 : 0.53
3) COC(=O)c1cc(OCc2cn(CCOCCOCCOCCn3cc(CO[C@@H]4O[C@H](CO)[C@H](O)[C@H](O)[C@H]4O)nn3)nn2)c(OCc2cn(CCOCCOCCOCCn3cc(CO[C@@H]4O[C@H](CO)[C@H](O)[C@H](O)[C@H]4O)nn3)nn2)c(OCc2cn(CCOCCOCCOCCn3cc(CO[C@@H]4O[C@H](CO)[C@H](O)[C@H](O)[C@H]4O)nn3)nn2)c1 : 0.51
4) OC[C@H]1O[C@@H](OCc2cn(CCn3cc(COCC(COCc4cn(CCn5cc(CO[C@@H]6O[C@H](CO)[C@H](O)[C@H](O)[C@H]6O)nn5)nn4)(COCc4cn(CCn5cc(CO[C@@H]6O[C@H](CO)[C@H](O)[C@H](O)[C@H]6O)nn5)nn4)COCc4cn(CCn5cc(CO[C@@H]6O[C@H](CO)[C@H](O)[C@H](O)[C@H]6O)nn5)nn4)nn3)nn2)[C@H](O)[C@@H](O)[C@H]1O : 0.21

Now for a further compound.
Given the entry O=C[C@H](O)[C@@H](O)[C@@H](O)[C@H](O)CO [D-galactose, reference compound] , report its measured n (stoichiometry).
0.78

* * *

target: lectin PA-IL (Pseudomonas aeruginosa); construct: made in house; host or cells: Escherichia coli BL21(DE3); assay: Isothermal titration microcalorimetry (ITC); type: binding; details: ITC, 25 °C
RECORDED_METRIC: ΔH (kcal/mol)
One number for each entry, in kcal/mol.

1) COC(=O)c1cc(OCc2cn(CCOCCOCCOCCn3cc(CO[C@@H]4O[C@H](CO)[C@H](O)[C@H](O)[C@H]4O)nn3)nn2)c(OCc2cn(CCOCCOCCOCCn3cc(CO[C@@H]4O[C@H](CO)[C@H](O)[C@H](O)[C@H]4O)nn3)nn2)c(OCc2cn(CCOCCOCCOCCn3cc(CO[C@@H]4O[C@H](CO)[C@H](O)[C@H](O)[C@H]4O)nn3)nn2)c1 [Compound 4] : -19.3
2) O=C[C@H](O)[C@@H](O)[C@@H](O)[C@H](O)CO [D-galactose, reference compound] : -9.03
3) OC[C@H]1O[C@@H](OCc2cn(CCn3cc(COCC(COCc4cn(CCn5cc(CO[C@@H]6O[C@H](CO)[C@H](O)[C@H](O)[C@H]6O)nn5)nn4)(COCc4cn(CCn5cc(CO[C@@H]6O[C@H](CO)[C@H](O)[C@H](O)[C@H]6O)nn5)nn4)COCc4cn(CCn5cc(CO[C@@H]6O[C@H](CO)[C@H](O)[C@H](O)[C@H]6O)nn5)nn4)nn3)nn2)[C@H](O)[C@@H](O)[C@H]1O [Compound 13] : -32.03
4) OC[C@H]1O[C@@H](OCc2cn(CCOCCOCCOCCn3cc(COCC(COCc4cn(CCOCCOCCOCCn5cc(CO[C@@H]6O[C@H](CO)[C@H](O)[C@H](O)[C@H]6O)nn5)nn4)(COCc4cn(CCOCCOCCOCCn5cc(CO[C@@H]6O[C@H](CO)[C@H](O)[C@H](O)[C@H]6O)nn5)nn4)COCc4cn(CCOCCOCCOCCn5cc(CO[C@@H]6O[C@H](CO)[C@H](O)[C@H](O)[C@H]6O)nn5)nn4)nn3)nn2)[C@H](O)[C@@H](O)[C@H]1O [Compound 7] : -26.29

Now for a further compound.
Given the entry COC(=O)c1cc(OCc2cn(CCn3cc(CO[C@@H]4O[C@H](CO)[C@H](O)[C@H](O)[C@H]4O)nn3)nn2)c(OCc2cn(CCn3cc(CO[C@@H]4O[C@H](CO)[C@H](O)[C@H](O)[C@H]4O)nn3)nn2)c(OCc2cn(CCn3cc(CO[C@@H]4O[C@H](CO)[C@H](O)[C@H](O)[C@H]4O)nn3)nn2)c1 [Compound 10] , report its measured ΔH.
-16.3

* * *

Hi there, I'd appreciate the recorded −T ΔS for every entry that follows.
target: lectin PA-IL (Pseudomonas aeruginosa, UniProt Q05097); construct: made in house; host or cells: Escherichia coli BL21(DE3); assay: Isothermal titration microcalorimetry (ITC); assay type: binding; conditions: ITC, 25 °C, calculated from ΔG = ΔH − TΔS
Give your result as the value with the unit written after it.

Use these answered entries as a reference point.
1) OC[C@H]1O[C@@H](OCc2cn(CCn3cc(COCC(COCc4cn(CCn5cc(CO[C@@H]6O[C@H](CO)[C@H](O)[C@H](O)[C@H]6O)nn5)nn4)(COCc4cn(CCn5cc(CO[C@@H]6O[C@H](CO)[C@H](O)[C@H](O)[C@H]6O)nn5)nn4)COCc4cn(CCn5cc(CO[C@@H]6O[C@H](CO)[C@H](O)[C@H](O)[C@H]6O)nn5)nn4)nn3)nn2)[C@H](O)[C@@H](O)[C@H]1O : 22.9 ± 2.904 kcal/mol
2) OC[C@H]1O[C@@H](OCc2cn(CCOCCOCCOCCn3cc(COCC(COCc4cn(CCOCCOCCOCCn5cc(CO[C@@H]6O[C@H](CO)[C@H](O)[C@H](O)[C@H]6O)nn5)nn4)(COCc4cn(CCOCCOCCOCCn5cc(CO[C@@H]6O[C@H](CO)[C@H](O)[C@H](O)[C@H]6O)nn5)nn4)COCc4cn(CCOCCOCCOCCn5cc(CO[C@@H]6O[C@H](CO)[C@H](O)[C@H](O)[C@H]6O)nn5)nn4)nn3)nn2)[C@H](O)[C@@H](O)[C@H]1O : 17.4 ± 1.59 kcal/mol
3) COC(=O)c1cc(OCc2cn(CCOCCOCCOCCn3cc(CO[C@@H]4O[C@H](CO)[C@H](O)[C@H](O)[C@H]4O)nn3)nn2)c(OCc2cn(CCOCCOCCOCCn3cc(CO[C@@H]4O[C@H](CO)[C@H](O)[C@H](O)[C@H]4O)nn3)nn2)c(OCc2cn(CCOCCOCCOCCn3cc(CO[C@@H]4O[C@H](CO)[C@H](O)[C@H](O)[C@H]4O)nn3)nn2)c1 : 11 ± 1.43 kcal/mol
4) COC(=O)c1cc(OCc2cn(CCn3cc(CO[C@@H]4O[C@H](CO)[C@H](O)[C@H](O)[C@H]4O)nn3)nn2)c(OCc2cn(CCn3cc(CO[C@@H]4O[C@H](CO)[C@H](O)[C@H](O)[C@H]4O)nn3)nn2)c(OCc2cn(CCn3cc(CO[C@@H]4O[C@H](CO)[C@H](O)[C@H](O)[C@H]4O)nn3)nn2)c1 : 7.98 ± 0.925 kcal/mol

Given the entry O=C[C@H](O)[C@@H](O)[C@@H](O)[C@H](O)CO [D-galactose, reference compound] , report its measured −T ΔS.
3.8 ± 0.507 kcal/mol
